- Tested on: LOX cells (human amelanotic melanoma)
- protocol.details: Cell growth of LOX cells by counting attached cells after oligonucleotide treatment
- Assay type: cell-based
- assay.context: oligonucleotide + DOTMA 4 h serum-free, two days after treatment (FIG. 4), read-out: IC50, inhibition of cell growth
readout.label: pIC50
The scale used: pIC50 is minus the common logarithm of the concentration in molar units.

Given CACCCGCCTT GGCCTCCCAC (antisense CACCCGCCTTGGCCTCCCAC; chemistry not given here) [SEQ ID NO: 9, p120 antisense oligonucleotide, 3' UTR] , respond with its pIC50.
8.00

###

- Test system: HeLa S3 cells (human epithelioid cervix carcinoma)
- protocol.details: Cell growth of HeLa cells by counting attached cells after oligonucleotide treatment
- Format: cell-based
- assay.context: HeLa cells; oligonucleotide + DOTMA 4 h serum-free; two days after treatment (FIG. 4); read-out: IC50, inhibition of cell growth
readout.label: pIC50
The scale used: pIC50 is minus the common logarithm of the concentration in molar units.

Given CACCCGCCTT GGCCTCCCAC (antisense CACCCGCCTTGGCCTCCCAC; chemistry not given here) [SEQ ID NO: 9, p120 antisense oligonucleotide, 3' UTR] , respond with its pIC50.
7.70
